pKi: −log10 of the molar value.
Observed pKi, system Carbonic anhydrase 12 (Homo sapiens, UniProt O43570).
assay.endpoint: pKi

> print(dat)
                            compound.smiles  numeric.value
1  NS(=O)(=O)c1ccc(N2C(=O)c3c(Br)c(Br)c(Br)c(Br)c3C2=O)c(F)c1           8.12
2  NS(=O)(=O)c1ccc(CCNC(=S)Nc2ccc(-c3c4ccc(=O)cc-4oc4cc(O)ccc34)c(C(=O)O)c2)cc1           8.30
3  NS(=O)(=O)c1ccc(N2C(=O)c3c(Br)c(Br)c(Br)c(Br)c3C2=O)cc1           8.21
4  NS(=O)(=O)c1cccc(N2C(=O)c3c(Br)c(Br)c(Br)c(Br)c3C2=O)c1           7.72
